test: physchem; conditions: water, saturated solution concentration in water
Recorded endpoint: solubility

Ask: Give reported solubility value for O=c1cc[nH]c(=O)[nH]1
Result: ~14.7 mg/mL
